// reported Ki per item
- Tgt: Histamine H1 receptor (Homo sapiens, UniProt P35367)
- Sequence (P35367 whole entry): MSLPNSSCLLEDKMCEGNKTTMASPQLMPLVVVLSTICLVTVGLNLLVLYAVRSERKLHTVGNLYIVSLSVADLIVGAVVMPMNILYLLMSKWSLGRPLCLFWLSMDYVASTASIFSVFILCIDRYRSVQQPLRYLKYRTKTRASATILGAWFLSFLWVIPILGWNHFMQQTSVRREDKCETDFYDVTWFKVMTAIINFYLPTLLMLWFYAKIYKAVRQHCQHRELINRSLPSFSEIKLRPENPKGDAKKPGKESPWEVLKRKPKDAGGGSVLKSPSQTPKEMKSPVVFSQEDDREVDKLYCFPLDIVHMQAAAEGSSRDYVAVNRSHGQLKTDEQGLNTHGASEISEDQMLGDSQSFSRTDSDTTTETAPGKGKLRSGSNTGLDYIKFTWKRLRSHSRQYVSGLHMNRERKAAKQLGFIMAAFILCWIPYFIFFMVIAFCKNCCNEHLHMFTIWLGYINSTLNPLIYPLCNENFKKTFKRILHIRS
- Procedure summary: Antagonist activity against human histamine H1 receptor expressed in CHO cells by FLIPR assay

# Molecule, Ki / nM
measured = [
    ("O=C(O)C=C1CN(C2CCC3(Cc4ccccc4Cc4ccccc43)C2)C1 (stereo not given)", 200),
    ("CC1(C(=O)O)CCN(C2CCC3(Cc4ccccc4Cc4ccccc43)C2)CC1 (stereo not given)", 50.1),
    ("O=C(O)CCNC1CC[C@]2(Cc3ccccc3Cc3ccccc32)C1 (stereo not given in full)", 10),
    ("O=C(O)CC1CN(C2CCC3(Cc4ccccc4Cc4ccccc43)C2)C1 (stereo not given)", 316),
    ("O=C(O)C1CN(C2CC[C@]3(Cc4ccccc4Cc4ccccc43)C2)CCO1 (stereo not given in full)", 63.1),
    ("O=C(O)C1(F)CCCN(C2CC[C@]3(Cc4ccccc4Cc4ccccc43)C2)C1 (stereo not given in full)", 794),
    ("O=C(O)C1CCN(C2CC[C@]3(Cc4ccccc4Cc4ccccc43)C2)C1 (stereo not given in full)", 15.8),
    ("O=C(O)[C@@H]1CCCN(C2CCC3(C2)C(=O)c2cc(Cl)ccc2Oc2ccccc23)C1 (stereo not given in full)", 200),
    ("O=C(O)[C@H]1[C@@H]2CN(C3CCC4(Cc5ccccc5Cc5ccccc54)C3)C[C@@H]21 (stereo not given in full)", 39.8),
    ("O=C(O)CCNC1CC[C@@]2(Cc3ccccc3Cc3ccccc32)C1 (stereo not given in full)", 25.1),
    ("O=C(O)C1=CCCN(C2CC[C@]3(Cc4ccccc4Cc4ccccc43)C2)C1 (stereo in doubt; 48)", 20),
    ("O=C(O)C1=CCCN(C2CCC3(Cc4cc(F)ccc4Cc4ccccc43)C2)C1 (stereo not given)", 39.8),
    ("O=C(O)CC1CCN(C2CC[C@]3(Cc4ccccc4Cc4ccccc43)C2)C1 (stereo not given in full)", 31.6),
    ("O=C(O)[C@@H]1CCCN(C2CC[C@]3(Cc4ccccc4Cc4ccccc43)C2)C1 (stereo not given in full)", 20),
    ("O=C(O)[C@]12C[C@H]1CN(C1CC[C@]3(Cc4ccccc4Cc4ccccc43)C1)C2 (stereo not given in full)", 31.6),
    ("O=C(O)C1CN(C2CC[C@]3(Cc4ccccc4Cc4ccccc43)C2)C1 (stereo not given in full)", 6.31),
    ("O=C(O)C1=CCCN(C2CCC3(Cc4ccccc4Oc4ccccc43)C2)C1 (stereo not given)", 100),
    ("O=C(O)C1(F)CCN(C2CC[C@]3(Cc4ccccc4Cc4ccccc43)C2)CC1 (stereo not given in full)", 39.8),
    ("O=C(O)C1=CCCN(C2CC[C@@]3(Cc4ccccc4Cc4ccccc43)C2)C1 (stereo not given in full)", 158),
    ("O=C(O)[C@@H]1CCCN(C2CCC3(Cc4ccccc4Oc4ccccc43)C2)C1 (stereo not given in full)", 126),
]
